Molecular target: aldehyde dehydrogenase (Saccharomyces cerevisiae)
Experiment: In vitro inhibitory activity against yeast Aldehyde dehydrogenase
pIC50: −log10 of the molar value.
Measured attribute: pIC50

smiles_data=CCOC(=O)N(OC(=O)N(CC)CC)S(=O)(=O)c1ccccc1 recorded_measurement=3.77

Origin of values: BindingDB's records for doi:10.1021/jm990235p
